Target: T1, Human CXCR2 (human, UniProt P25025 1-360)
T1 construct: Some cell lines carry an N-terminal 3xHA tag; also called hCXCR2; huCXCR2
T1 sequence: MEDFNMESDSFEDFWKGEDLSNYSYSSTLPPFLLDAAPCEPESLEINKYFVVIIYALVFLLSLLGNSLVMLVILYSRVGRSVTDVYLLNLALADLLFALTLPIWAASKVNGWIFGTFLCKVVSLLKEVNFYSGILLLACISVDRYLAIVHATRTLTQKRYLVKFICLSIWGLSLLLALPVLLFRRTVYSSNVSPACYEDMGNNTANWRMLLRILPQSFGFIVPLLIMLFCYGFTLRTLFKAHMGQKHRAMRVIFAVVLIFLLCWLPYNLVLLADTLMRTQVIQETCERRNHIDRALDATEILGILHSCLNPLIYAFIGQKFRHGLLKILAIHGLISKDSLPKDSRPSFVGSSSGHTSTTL
Assay: FACS competition vs 3 nM FMAT-Blue Gro-α
pIC50: −log10 of the molar value.
The entries below are paired with their reported pIC50.
Measured property: pIC50

Binder	Reading
CXCR20027 (bispecific antibody, Two different VHH joined by a GlySer linker; also called 163E3-35GS-163D2; not shown: C-terminal c-myc tag and His6 tag coded by pAX100) EVQLVESGGGLVQPGGSLRLSCVASGRIFSSNAMGWFRQAPGKEREFVAAITWRSGGSAYYADSAKGRFTISRDNAKNTVYLQMNSLKPEDTAVYYCAAGGSSWLSFPPDYWGQGTQVTVSSGGGGSGGGGSGGGGSGGGGSGGGGSGGGGSGGGGSEVQLVESGGGLVQAGGSLRLSCAASGRTFSDYAMGWFRQAPGKEREFVAAITWNGGRVFYTASVKGRFTISRDNAKNTMYLQMNSLKPEDTAVYYCAADKDRRTDYLGHPVAYWGQGTQVTVSS	8.31
CXCR20034 (bispecific antibody, Biparatopic: two VHH joined by a GlySer linker; also called 163D2-35GS-2B2; 163D2-2B2; not shown: C-terminal c-myc tag and His6 tag coded by pAX100) EVQLVESGGGLVQAGGSLRLSCAASGRTFSDYAMGWFRQAPGKEREFVAAITWNGGRVFYTASVKGRFTISRDNAKNTMYLQMNSLKPEDTAVYYCAADKDRRTDYLGHPVAYWGQGTQVTVSSGGGGSGGGGSGGGGSGGGGSGGGGSGGGGSGGGGSEVQLVESGGELVQPGGSLRLSCAASGSILTINAMGWYRQAPGKQRELVVRRTRGGSTTYQDSVKGRFTISADIAKKTMYLQMNSLKPEDTAVYYCMLDDRGGVYWGQGTQVTVSS	9.10
